measured metric: melting point

Examples with their reported melting point follow.
{"columns": ["compound", "melting point"],
 "data": [
  ["CCCCCCCCCS(=O)(=O)c1c(S(=O)(=O)CCCCCCCCC)c(S(=O)(=O)CCCCCCCCC)c(S(=O)(=O)CCCCCCCCC)c(S(=O)(=O)CCCCCCCCC)c1S(=O)(=O)CCCCCCCCC", "95 °C"],
  ["Cc1ccnc2nc(SCc3ccccc3)nn12", "102 to 104 °C"],
  ["C=Cc1cc(C=Cc2cc(C=Cc3cc(C(C)(C)C)cc(C(C)(C)C)c3)cc(C=Cc3cc(C(C)(C)C)cc(C(C)(C)C)c3)c2)cc(C=Cc2cc(C=Cc3cc(C(C)(C)C)cc(C(C)(C)C)c3)cc(C=Cc3cc(C(C)(C)C)cc(C(C)(C)C)c3)c2)c1", "272 to 275 °C"],
  ["COc1cc(OC)c(/C=C/C(c2ccc(OC)c(NC(=N)N)c2)S(=O)(=O)C(/C=C/c2c(OC)cc(OC)cc2OC)c2ccc(OC)c(NC(=N)N)c2)c(OC)c1 (stereo not given)", "174 to 176 °C"],
  ["CC(=O)N1C(C)(C)CC(OC(=O)CCn2c(=O)n(CCC(=O)OC3CC(C)(C)N(C(C)=O)C(C)(C)C3)c(=O)n(CCC(=O)OC3CC(C)(C)N(C(C)=O)C(C)(C)C3)c2=O)CC1(C)C", "126 to 128 °C"]
]}

Hi! Can you tell me melting point for each of these compounds?
1. C=CC(=O)NCNC(=O)C=C
2. O=C(NCCCN1CCOCC1)c1ccc(-c2ccc(Br)cc2)o1
3. COc1ccc(Br)cc1S(=O)(=O)Nc1onc(C)c1Br

185 °C
83 to 100 °C
192 to 195 °C

Hi! Can you tell me melting point for each of these compounds?
1. CS(=O)(=O)c1ccc(-c2cc3c(cc2C(=O)c2cc4c(cc2-c2ccc(S(C)(=O)=O)cc2)OC(c2cc(F)cc(F)c2)CO4)OCC(c2cc(F)cc(F)c2)O3)cc1 (stereo not given)
2. O=C1CCc2cc(O)c(I)cc21

1. 191 to 193 °C
2. 114 to 115 °C

###

What melting point was measured for each of the following?
Residues, ends and D or L forms follow the SMILES beside them. *: point of attachment. Trt = c1ccc(C(c2ccccc2)(c2ccccc2)*)cc1; Boc = CC(C)(C)OC(=O)*

Examples with their reported melting point follow.
{"columns": ["compound", "reported value"],
 "data": [
  ["CCSC(=O)N(CC(C)C)CC(C)C", "6 °C"],
  ["CCCCCCC=CC(OC(=O)c1ccccc1)C(COC1OC(COCC(=O)O)C(OCC(=O)O)C(OC(=O)c2ccccc2)C1OC(=O)c1ccccc1)NC(=O)CCCCCCCCC(=O)OC (configuration not stated)", "124 to 125 °C"],
  ["CCN(CC)CCN=S(=O)(c1cccs1)c1cccs1", "131 °C"]
]}

Hi! Can you tell me melting point for each of these compounds?
1. CCCCCc1ccc(OCCCCCCOc2ccc(-c3ccc4c5c(c(C(=O)OCC)cc4c3)C=CC(c3ccccc3)(c3ccc(N4CCCCC4)cc3)O5)cc2)cc1 (configuration not stated)
2. CC(C)CCCC(C)C1CCC2C3CC=C4CC(N(CCCNC(=O)CCNC(=O)CNC(=O)OCC5c6ccccc6-c6ccccc65)C(=O)OC(C)(C)C)CCC4(C)C3CCC12C (configuration not stated)
3. C=CCOC1C(NC(C)=O)C(OCc2ccccc2)OC(COCc2ccccc2)C1OC1(N)OC(COCc2ccccc2)C(OCc2ccccc2)C(OCc2ccccc2)C1C(=O)OCC(Cl)(Cl)Cl (configuration not stated)
4. CCCCN(CCCC)c1ccc(C=Cc2ccc(C=CC3=C(C#N)C(=C(C#N)C#N)OC3(C)C(F)(F)F)s2)c(O[Si](c2ccccc2)(c2ccccc2)C(C)(C)C)c1 (configuration not stated)
5. O=S(=O)(C(/C=C/c1ccc(I)cc1)c1ccc(Cl)cc1Cl)C(/C=C/c1ccc(I)cc1)c1ccc(Cl)cc1Cl (configuration not stated)

["85 to 86 °C", "112 to 114 °C", "186 to 188 °C", "186 to 187 °C", "181 to 182 °C"]

Hi! Can you tell me melting point for each of these compounds?
1. CCOC(=O)C(C)OC(=O)c1c(I)c(NC(C)=O)c(I)c(C(=O)OC(C)C(=O)OCC)c1I (configuration not stated)
2. C=Cc1cccc2c(=O)c(C(=O)CCC)c[nH]c12
3. CC(C)c1cc(C(C)C)c(CC(=O)NS(=O)(=O)Oc2c(C(C)C)cc(C(=O)[C@H](CCCCNC(=O)OC(C)(C)C)NC(=O)OC(C)(C)C)cc2C(C)C)c(C(C)C)c1
4. COC(=O)C(Cc1ccccc1)NC(=O)C(Cc1ccccc1)NC(=O)C(CC(N)=O)NC(=O)C(CCCCNC(=O)OC(C)(C)C)NC(=O)C(CSC(c1ccccc1)(c1ccccc1)c1ccccc1)NC(=O)CNC(=O)C(C)NC(=O)CNC(=O)CNC(=O)C(CC(C)C)NC(=O)OC(C)(C)C (configuration not stated) (Boc-LGGAGC(Trt)K(Boc)NFF-OMe; configuration not given here)
5. FC(F)(F)c1ccc(-c2cc(-c3ccc(C(F)(F)F)cc3C(F)(F)F)c3ccc4c(-c5ccc(C(F)(F)F)cc5C(F)(F)F)cc(-c5ccc(C(F)(F)F)cc5C(F)(F)F)c5ccc2c3c54)c(C(F)(F)F)c1
6. CCCCc1ccc(C(=O)Nc2ccc(OC(=O)c3ccc(CCCC)cc3)c3c2C(=O)c2c(NC(=O)c4ccc(CCCC)cc4)cc(C)c(OC(=O)c4ccc(CCCC)cc4)c2C3=O)cc1

1: 160 to 165 °C; 2: 206 to 208 °C; 3: 167 to 171 °C; 4: 238 to 240 °C; 5: 290 °C; 6: > 250 °C

Hi! Can you tell me melting point for each of these compounds?
1. CCCCCCCCCCCCCC(=O)Nc1ccc(Cl)c(NC2=NN(c3c(Cl)cc(Cl)cc3Cl)C(=O)C2Sc2nnnn2-c2cccc(C(=O)O)c2)c1 (configuration not stated)
2. Nc1ncc(Br)cc1[N+](=O)[O-]
3. O=S(=O)(C(/C=C/c1c(F)c(F)c(F)c(F)c1F)c1ccc(I)cc1)C(/C=C/c1c(F)c(F)c(F)c(F)c1F)c1ccc(I)cc1 (configuration not stated)

1: 155 to 165 °C; 2: 209 °C; 3: 178 to 181 °C
